# credit: the supplement of paper PMC11246515

Please provide measured total protein half-life in vivo for the entries that follow.
- testDescription: total protein half-life in vivo (active degradation + dilution); higher = more stable protein
- testConditions: E. coli NCM3722 delta-lon; growth: N-lim chemostat; doubling time 6 h
Entry rule: numbers only, all in h.

# return recorded total protein half-life in vivo for entry MTTKRKPYVRPMTSTWWKKLPFYRFYMLREGTAVPAVWFSIELIFGLFALKNGPEAWAGFVDFLQNPVIVIINLITLAAALLHTKTWFELAPKAANIIVKDEKMGPEPIIKSLWAVTVVATIVILFVALYW [P0A8Q0]
6.06

For the sequence MSGLPLISRRRLLTAMALSPLLWQMNTAHAAAIDPNRIVALEWLPVELLLALGIVPYGVADTINYRLWVSEPPLPDSVIDVGLRTEPNLELLTEMKPSFMVWSAGYGPSPEMLARIAPGRGFNFSDGKQPLAMARKSLTEMADLLNLQSAAETHLAQYEDFIRSMKPRFVKRGARPLLLTTLIDPRHMLVFGPNSLFQEILDEYGIPNAWQGETNFWGSTAVSIDRLAAYKDVDVLCFDHDNSKDMDALMATPLWQAMPFVRAGRFQRVPAVWFYGATLSAMHFVRVLDNAIGGKA , give its measured total protein half-life in vivo value.
6.51

Tell me its total protein half-life in vivo given MSDNAQLTGLCDRFRGFYPVVIDVETAGFNAKTDALLEIAAITLKMDEQGWLMPDTTLHFHVEPFVGANLQPEALAFNGIDPNDPDRGAVSEYEALHEIFKVVRKGIKASGCNRAIMVAHNANFDHSFMMAAAERASLKRNPFHPFATFDTAALAGLALGQTVLSKACQTAGMDFDSTQAHSALYDTERTAVLFCEIVNRWKRLGGWPLSAAEEV as the entry.
6.1

Return the recorded total protein half-life in vivo value; entry: MTTYDRNRNAITTGSRVMVSGTGHTGKILSIDTEGLTAEQIRRGKTVVVEGCEEKLAPLDLIRLGMN
4.53

For the sequence MTHKATEILTGKVMQKSVLITGCSSGIGLESALELKRQGFHVLAGCRKPDDVERMNSMGFTGVLIDLDSPESVDRAADEVIALTDNCLYGIFNNAGFGMYGPLSTISRAQMEQQFSANFFGAHQLTMRLLPAMLPHGEGRIVMTSSVMGLISTPGRGAYAASKYALEAWSDALRMELRHSGIKVSLIEPGPIRTRFTDNVNQTQSDKPVENPGIAARFTLGPEAVVDKVRHAFISEKPKMRYPVTLVTWAVMVLKRLLPGRVMDKILQG [P0AFP4] , give its measured total protein half-life in vivo value.
6.02

Quick one: give measured total protein half-life in vivo for MKSLQALFGGTFDPVHYGHLKPVETLANLIGLTRVTIIPNNVPPHRPQPEANSVQRKHMLELAIADKPLFTLDERELKRNAPSYTAQTLKEWRQEQGPDVPLAFIIGQDSLLTFPTWYEYETILDNAHLIVCRRPGYPLEMAQPQYQQWLEDHLTHNPEDLHLQPAGKIYLAETPWFNISATIIRERLQNGESCEDLLPEPVLTYINQQGLYR [P0A752]
5.03

Read off the recorded total protein half-life in vivo for MSQLPGLSRETRESIAMYHLRVPQTEEELERYYQFRWEMLRKPLHQPKGSERDAWDAMAHHQMVVDEQGNLVAVGRLYINADNEASIRFMAVHPDVQDKGLGTLMAMTLESVARQEGVKRVTCSAREDAVEFFAKLGFVNQGEITTPTTTPIRHFLMIKPVATLDDILHRGDWCAQLQQAWYEHIPLSEKMGVRIQQYTGQKFITTMPETGNQNPHHTLFAGSLFSLATLTGWGLIWLMLRERHLGGTIILADAHIRYSKPISGKPHAVADLGALSGDLDRLARGRKARVQMQVEIFGDETPGAVFEGTYIVLPAKPFGPYEEGGNEEE [P0ADQ2]
4.93
